- measuredOn: T1, human CD33 extracellular domain (human, UniProt P20138 18-259)
- T1 construct: soluble monomeric ECD; also called human CD33 ECD; hCD33
- method: SPR, Fab captured, 37C;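 also: surface plasmon resonance with Fabs captured on anti-Fab surface, soluble monomeric CD33 as analyte at several concentrations, double-referenced 1:1 model fit, KD as koff/kon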
propertyName: Kd (nM)
Numbers only, in nM.

**Query** Consider the binder shown here: ADI-10163 Fab (Fab, V domains shown, Fab fragment; also called Ab17) VH: QVQLQESGPGLVKPSQTLSLTCTVSGGSISSGGYYWSWIRQHPGKGLEWIGSIYYSGSTYYNPSLKSRVTISVDTSKNQFSLKLSSVTAADTAVYYCARDRLDYSYNYGMDVWGQGTTVTVSS VL: DIQMTQSPSSLSASVGDRVTITCRASQSISSYLNWYQQKPGKAPKLLIYGASSLQSGVPSRFSGSGSGTDFTLTISSLQPEDFATYYCQQVYSAPFTFGGGTKVEIK What is its recorded Kd?
**Result** 53.5
